# System: Plasmodium falciparum
# Method: Antimalarial activity against chloroquine-resistant Plasmodium falciparum K1 infected in human A positive erythrocytes assessed as inhibition of [G-3H]-hypoxanthine uptake after 24 hrs by liquid scintillation counting
# Format: functional, organism-based
# Test Settings: K1, 24 h
Assign pIC50 to each entry below.
Remember, pIC50 is on a log scale: it is -log10 of the molar concentration.

Q: // returns reported pIC50 for input O=C(Cn1cnc2cccnc2c1=O)[C@H]1NCC[C@@H]1OCc1ccccc1
Result: 9.62

Q: What does the record list as pIC50 for O=C(Cn1cnc2ccccc2c1=O)[C@H]1NCC[C@@H]1O ?
Result: 8.41

Q: Reported pIC50, compound CCN(CC)Cc1cc(Nc2ccnc3cc(Cl)ccc23)ccc1O : ____
Result: 7.67

Q: I would be grateful if you could share the reported pIC50 for O=C(Cn1cnc2ccncc2c1=O)[C@H]1NCC[C@@H]1O .
Result: 8.55

Q: Would you kindly share the measured pIC50 for O=C(Cn1cnc2cccc(C(F)(F)F)c2c1=O)[C@@H]1NCC[C@H]1O ?
Result: 8.32

Q: Look up pIC50 for this compound: CCO[C@H]1CCN[C@@H]1C(=O)Cn1cnc2cccc(F)c2c1=O
Result: 9.62

###

Kindly supply the reported log10 of IC50 values for the records listed here.
# Test system: Plasmodium falciparum
# Method: Antimalarial activity against chloroquine-sensitive Plasmodium falciparum 3D7 infected in human A positive erythrocytes assessed as inhibition of [G-3H]-hypoxanthine uptake after 24 hrs by liquid scintillation counting
# Assay type: functional, organism-based
# Test Settings: 3D7, 24 h
Quick note: numbers are log10 of IC50, with nM as the unit.

Q: Item O=C(Cn1cnc2cccnc2c1=O)[C@H]1NCC[C@@H]1O has what recorded log10 of IC50?
Result: 0.26

Q: Request the reported log10 of IC50 associated with O=C(Cn1cnc2cccc(C(F)(F)F)c2c1=O)[C@@H]1NCC[C@H]1O
Result: 0.41

Q: Quick one: log10 of IC50 of CC(C)O[C@H]1CCN[C@@H]1C(=O)Cn1cnc2cccc(C(F)(F)F)c2c1=O ?
Result: -0.44

Q: What value of log10 of IC50 has been reported for the following molecule? O=C(Cn1cnc2cccc(C(F)(F)F)c2c1=O)[C@H]1NCC[C@H]1O
Result: 1.29

Q: Need log10 of IC50, item CCO[C@H]1CCN[C@@H]1C(=O)Cn1cnc2cccc(F)c2c1=O
Result: -0.68

Q: Can you share its log10 of IC50? I mean this molecule: O=C(Cn1cnc2cccc(F)c2c1=O)[C@H]1NCC[C@@H]1O
Result: 0.76

Q: Name the reported log10 of IC50 value associated with the molecule O=C(Cn1cnc2ccccc2c1=O)[C@H]1NCC[C@@H]1O
Result: 0.45

Q: Which log10 of IC50 value is on record for O=C(Cn1cnc2cccnc2c1=O)[C@H]1NCC[C@H]1O ?
Result: 1.21

Q: Bench note: what log10 of IC50 did O=C(Cn1cnc2ccncc2c1=O)[C@H]1NCC[C@@H]1O show?
Result: 0.15

Q: What value of log10 of IC50 has been recorded for this entry: O=C(Cn1cnc2cccnc2c1=O)[C@H]1NCC[C@@H]1OCc1ccccc1
Result: -0.68

Q: # query: log10 of IC50 of entry O=C(Cn1cnc2cccnc2c1=O)[C@@H]1NCC[C@H]1O
Result: 0.28

Q: Can you share its log10 of IC50? I mean this molecule: CCN(CC)Cc1cc(Nc2ccnc3cc(Cl)ccc23)ccc1O
Result: 0.69

Q: Given the entry O=C(Cn1cnc2cccc(C(F)(F)F)c2c1=O)[C@H]1NCC[C@@H]1O , report its measured log10 of IC50.
Result: 0.43

Value source: ChEMBL document CHEMBL1926628
